Values from patent US20180214393A1

- ASSAY_TEXT: Phase 1 dose escalation study in healthy postmenopausal women, plasma pharmacokinetics
- Assay type: in vivo, human
- CONDITION_CONTEXT: female, human, plasma, oral; multiple dose administration; read-out: median tmax across dose groups
Where a name gives a salt, the structure may show the parent alone.
MEASUREMENT_NAME: Tmax

COMPOUND: CCNCCc1ccc(CN(CC)c2cc(OC)ccc2[C@@H]2CCc3cc(O)ccc3C2)cc1 [RAD1901, dihydrochloride]
RECORDED_MEASUREMENT: 3 to 4 h

====

- ASSAY_TEXT: Phase 1 dose escalation study in healthy postmenopausal women, plasma pharmacokinetics
- Type: in vivo, human
- CONDITION_CONTEXT: female, human, plasma, oral; 1000 mg, Day 7; read-out: t1/2 Geo-Mean (converted)
Structures can show the parent of a compound that is named as a salt.

MOLECULE: CCNCCc1ccc(CN(CC)c2cc(OC)ccc2[C@@H]2CCc3cc(O)ccc3C2)cc1 [RAD1901, dihydrochloride]
UNITS_LABEL: h
half-life: 42.3

====

- ASSAY_TEXT: RAD1901 levels in plasma, tumor and brain of mice implanted with MCF7 cells (LC-MS/MS)
- Type: in vivo
- CONDITION_CONTEXT: mouse, tumor, oral; 1 mg/kg, 40 days; read-out: Tumor
Structures can show the parent of a compound that is named as a salt.
MEASUREMENT_NAME: concentration at 40 days (ng/mL)

COMPOUND: CCNCCc1ccc(CN(CC)c2cc(OC)ccc2[C@@H]2CCc3cc(O)ccc3C2)cc1 [RAD1901, dihydrochloride]
RECORDED_MEASUREMENT: 45

====

- ASSAY_TEXT: RAD1901 levels in plasma, tumor and brain of mice implanted with MCF7 cells (LC-MS/MS)
- Type: in vivo
- CONDITION_CONTEXT: mouse, brain, oral, 10 mg/kg, 40 days; read-out: B/P Ratio
Counter-ions that a name gives are not always drawn.

MOLECULE: CCNCCc1ccc(CN(CC)c2cc(OC)ccc2[C@@H]2CCc3cc(O)ccc3C2)cc1 [RAD1901, dihydrochloride]
Kp at 40 days: 0.36

====

- ASSAY_TEXT: RAD1901 levels in plasma, tumor and brain of mice implanted with MCF7 cells (LC-MS/MS)
- Type: in vivo
- CONDITION_CONTEXT: mouse, brain, oral, 60 mg/kg, 40 days; read-out: B/P Ratio
Structures can show the parent of a compound that is named as a salt.
MEASUREMENT_NAME: Kp at 40 days

MOLECULE: CCNCCc1ccc(CN(CC)c2cc(OC)ccc2[C@@H]2CCc3cc(O)ccc3C2)cc1 [RAD1901, dihydrochloride]
MEASUREMENT_NAME: Kp at 40 days
RECORDED_MEASUREMENT: 0.6

====

- ASSAY_TEXT: RAD1901 levels in plasma, tumor and brain of mice implanted with MCF7 cells (LC-MS/MS)
- Format: in vivo
- CONDITION_CONTEXT: mouse, plasma, oral; 10 mg/kg, 40 days; read-out: Plasma
- Text: A similar tumor to plasma ratio was also observed at lower dose levels where tumor concentrations were approximately 20-30 fold higher than in plasma.
Counter-ions that a name gives are not always drawn.
MEASUREMENT_NAME: concentration at 40 days (ng/mL)

MOLECULE: CCNCCc1ccc(CN(CC)c2cc(OC)ccc2[C@@H]2CCc3cc(O)ccc3C2)cc1 [RAD1901, dihydrochloride]
MEASUREMENT_NAME: concentration at 40 days
RECORDED_MEASUREMENT: 39
